# experimental-details: Reversal of P-gp-mediated paclitaxel-resistance in human LCC6MDR cells after 5 days by MTS assay
# Format: cell-based
# protocol-conditions: 120 h
pEC50: −log10 of the molar value.

>  <compound>
O=c1cc(-c2ccc(OCCOCCN(CCOCCOc3ccc(-c4cc(=O)c5ccccc5o4)cc3)Cc3ccccc3)cc2)oc2ccccc12

>  <pEC50>
6.83

$$$$
>  <compound>
O=c1cc(-c2ccc(OCCOCCN(CCOCCOc3ccc(-c4cc(=O)c5ccccc5o4)cc3)Cc3ccc(C(F)(F)F)cc3)cc2)oc2ccccc12

>  <pEC50>
6.82

$$$$
>  <compound>
O=c1cc(-c2ccc(OCCOCCNCCOCCOc3ccc(-c4cc(=O)c5ccccc5o4)cc3)cc2)oc2ccccc12

>  <pEC50>
6.52

$$$$
